Record form. Attribute: TGI. Fill in for each entry.
test system: SW-620 colon; assay: NCI tumour cell line growth inhibition, 48 h
Where a SMILES comes first, the peptide text is derived from it.

In plain terms, CCC(C)C(NC(=O)C1CCCN1)C(=O)NC(C(=O)NCC(=O)NC(CC(N)=O)C(=O)NC(CC(C)C)C(=O)NC(CC(C)C)C(=O)NC(CCCCN)C(N)=O)C(C)C (centres undefined) (H-PIVGNLLK-NH2; configuration not given here) has a documented TGI of > 75 µM

Recorded result, CC(C)(C)N1CCC1C(N)=O (centres undefined) , TGI: > 100 µM

Lookup result for Cc1ccc2c(c1)nc(C(=O)c1ccco1)c(C(F)(F)F)[n+]2[O-] ; measured TGI: 3.33 µM

Per the records, this compound ( O=c1cccc(C#CC#C[C@H]2O[C@@H]2CO)o1 ) has TGI equal to 0.596 µM

# TGI of Cc1c(N=Nc2ccc([N+](=O)[O-])cc2)nc2scc(-c3ccccc3)n12 = > 100 µM

According to the records, this compound Cc1cn(C2CC(SCCO)C(CO)O2)c(=O)[nH]c1=O (centres undefined) displays TGI of > 100 µM

Summary for this compound, N#CC(C(=O)/C(=N/N)C(C#N)c1ccc(Cl)cc1)c1ccc(Cl)cc1 (centres undefined) : TGI is > 100 µM

Measured TGI, COC(=O)c1c(C)cccc1C1CN=NC12Cc1cccc(C)c1C2=O (centres undefined) : > 100 µM

Sample CC(C)Oc1cc2c(cc1O)CC[C@@H]1[C@@H]2CC[C@]2(C)[C@@H](O)CC[C@@H]12 ; TGI observed: 27.2 µM

Notebook: COc1ccccc1-[n+]1cc(-c2ccc(-c3ccccc3)cc2)n2c1CCCCC2 , TGI read as 12.7 µM

Notebook: O=C(O)c1cc(Nc2c(O)c3c(c(O)c2Cl)C(=O)C=CC3=O)ccc1O , TGI read as > 10 µM

// TGI value for O=C(O)Cn1ncn(NC(=O)Cc2ccccc2)c1=S : > 10 µM

TGI recorded for this compound, CC(=O)CCCCCCCCCCCC[C@@H]1CC[C@H](C)[C@H](O)N1 , is > 100 µM

Input C=C1C(=O)O[C@H]2[C@H]1CC/C(COC(=O)/C=C/C(=O)OC/C1=C/CC[C@@]3(C)O[C@H]3[C@H]3OC(=O)C(=C)[C@@H]3CC1)=C\CC[C@@]1(C)O[C@@H]21 . Output TGI: 1.11 µM

The compound listed as COc1c(-c2ccc(F)cc2)oc2cc(O)cc(O)c2c1=O has a reported TGI of > 100 µM

What the record says about Clc1ccc(Cc2nc3ccccc3nc2-c2cccc(Cl)c2)cc1 : TGI is 3.71 µM

Entry C=C(C)C(=O)O[C@H]1CC2(CO)O[C@@H]2CC/C(COC(C)=O)=C/C2OC(=O)C(=C)[C@@H]21 (some centres undefined) — recorded TGI = 54.7 µM

Item: CCOC(=O)COC1=Nc2cc(OC)c(OC)c3nc(Cl)cc(c23)C1=O | TGI: > 21.6 µM

Measured TGI, O=C1CCC(Cc2ccc(Cl)cc2Cl)C(=O)N1 (centres undefined) : > 100 µM

---

tested on: HCT-116 colon; test: NCI tumour cell line growth inhibition, 48 h
measurementType: GI50

Looking up Cc1ccc(C(CN(C)C)C(=O)c2ccccc2)cc1 (stereo not given) , I found its GI50 recorded as 0.514 µM

According to the records, this compound CC12CCC3C(CC=C4CC(O)CCC43C)C1C/C(=C\N1CCCC1)C2=O (stereo not given) displays GI50 of 69.3 µM

Sample O=S(=O)([O-])c1cccc2cccc(N=Cc3ccccc3[O-])c12.O=S(=O)([O-])c1cccc2cccc(N=Cc3ccccc3[O-])c12.[O]=[U]=[O] ; GI50 observed: 22.3 µM

Sample N#Cc1c(C(=O)c2ccccc2)cnn1-c1ccccc1 ; GI50 observed: > 25 µM

Measured GI50, C=C1C(=O)O[C@H]2[C@H]1CC/C(COC(=O)NCc1cc3ccccc3[nH]1)=C\CC[C@@]1(C)O[C@@H]21 : 1.37 µM

These data points were gathered from PubChem BioAssay (NCI).
